Hey, just so you know, these numbers are from the NIST ThermoML archive (doi:10.1021/je400243j).

# condition.context: 293.15 K; 101.33 kPa; Liquid; Vibrating tube method
assay.metric: mass density (kg/m3)

INSERT INTO assay_data (molecule, value_unit, quantitative_readout) VALUES
  ('C[n+]1ccn(CCCS(=O)(=O)O)c1.O=S(=O)([O-])O [1-methyl-3-(3-sulfopropyl)-imidazolium hydrogensulfate]', 'kg/m3', 1501.7),
  ('C[n+]1ccn(CCCCS(=O)(=O)O)c1.O=S(=O)([O-])O [1-methyl-3-(4-sulfobutyl)-imidazolium hydrogensulfate]', 'kg/m3', 1464.7),
  ('CCCCn1cc[n+](CCCS(=O)(=O)O)c1.O=S(=O)([O-])O [1-butyl-3-(3-sulfopropyl)-imidazolium hydrogensulfate]', 'kg/m3', 1346.9),
  ('CCCCn1cc[n+](CCCCS(=O)(=O)O)c1.O=S(=O)([O-])O [1-butyl-3-(4-sulfobutyl)-imidazolium hydrogensulfate]', 'kg/m3', 1361.1);

---

# condition.context: 293.15 K; 101.33 kPa; Liquid; Concentric cylinders viscometry
assay.metric: viscosity (mPa·s)

INSERT INTO assay_data (compound, value_unit, quantitative_readout) VALUES
  ('CCCCn1cc[n+](CCCS(=O)(=O)O)c1.O=S(=O)([O-])O [1-butyl-3-(3-sulfopropyl)-imidazolium hydrogensulfate]', 'mPa·s', 1000),
  ('CCCCn1cc[n+](CCCCS(=O)(=O)O)c1.O=S(=O)([O-])O [1-butyl-3-(4-sulfobutyl)-imidazolium hydrogensulfate]', 'mPa·s', 1592),
  ('C[n+]1ccn(CCCCS(=O)(=O)O)c1.O=S(=O)([O-])O [1-methyl-3-(4-sulfobutyl)-imidazolium hydrogensulfate]', 'mPa·s', 1427),
  ('C[n+]1ccn(CCCS(=O)(=O)O)c1.O=S(=O)([O-])O [1-methyl-3-(3-sulfopropyl)-imidazolium hydrogensulfate]', 'mPa·s', 1296);
